folding stability dG listing for selected variants.
B1: EEHEE_rd4_0763 (parent)
chain: LTVHVGNVTYHFDNPEQAEEWAKRMAKKYQGQIHVKDGQFRIE

variants of: B1; assay: folding stability dG (cDNA display proteolysis); higher = more stable; settings: PBS, room temperature
Number in kcal/mol, nothing else.

Answered cases to consult:
primary.sequence: LTVHVGNVTYHFDNPMQAEEWAKRMAKKYQGQIHVKDGQFRIE
unit.info: kcal/mol
folding stability dG: 1.66

primary.sequence: LTVHVGNVTYHFDNPEQAEEWAKRMPKKYQGQIHVKDGQFRIE
unit.info: kcal/mol
folding stability dG: 0.273

primary.sequence: LTVHVGNVTYHFDNPEQAEEWAKRMAPKYQGQIHVKDGQFRIE
unit.info: kcal/mol
folding stability dG: 0.724

primary.sequence: LTVHVGWVTYHFDNPEQAEEWAKRMAKKYQGQIHVKDGQFRIE
unit.info: kcal/mol
folding stability dG: 1.65

primary.sequence: LTVHVGNVTYHFDNPEPAEEWAKRMAKKYQGQIHVKDGQFRIE
unit.info: kcal/mol
folding stability dG: 0.493

primary.sequence: LTVHVCNVTYHFDNPEQAEEWAKRMAKKYQGQIHVKDGQFRIE
unit.info: kcal/mol
folding stability dG: 2.58

primary.sequence: LTVHVGNVTYHFDNPEQAEEWAKRCAKKYQGQIHVKDGQFRIE
unit.info: kcal/mol
folding stability dG: 2.03

primary.sequence: LTVHVGNVTYHFDNPEQAEEWAKRMAKKYQGQIHVKDGQFRIS
unit.info: kcal/mol
folding stability dG: 1.4

Consider the variant "LTVHVGNVTEHFDNPEQAEEWAKRMAKKYQGQIHVKDGQFRIE" and give its recorded folding stability dG.
0.183

Consider the variant "LTVHVGNVTYHFDNPEQAENWAKRMAKKYQGQIHVKDGQFRIE" and give its recorded folding stability dG.
1.58

Consider the variant "LTVHVGNVTYHFDNPEQADEWAKRMAKKYQGQIHVKDGQFRIE" and give its recorded folding stability dG.
1.06

Consider the variant "LTVHVGNVTYHFDNPEQAEEWAKRMAKKYQYQIHVKDGQFRIE" and give its recorded folding stability dG.
1.37

Consider the variant "LTVHVGNVTYHFDNPEQAEEWALRMAKKYQGQIHVKDGQFRIE" and give its recorded folding stability dG.
1.69

Consider the variant "LTVHVGNVTYHFDNPEQAEEKAKRMAKKYQGQIHVKDGQFRIE" and give its recorded folding stability dG.
-0.246

Consider the variant "LTVHVGNVTYHFDNPEQAEEWAKRMAKKYQGQIHVKDGQFRIL" and give its recorded folding stability dG.
1.76

Consider the variant "LTVHVGNVTYHFDNPEQAEEWTKRMAKKYQGQIHVKDGQFRIE" and give its recorded folding stability dG.
0.746

Consider the variant "LTVHVGNVTYHFDNPEQAEEWAKRMAKKYQGQIHVKDGQFRQE" and give its recorded folding stability dG.
0.913

Consider the variant "LTVHVGNVTYHFDNPEQAEEWAKRMAKKYQGQIHVRDGQFRIE" and give its recorded folding stability dG.
1.51

Consider the variant "LTVHVGPVTYHFDNPEQAEEWAKRMAKKYQGQIHVKDGQFRIE" and give its recorded folding stability dG.
1.45

Consider the variant "LTVHVGNVTYHFDNFEQAEEWAKRMAKKYQGQIHVKDGQFRIE" and give its recorded folding stability dG.
1.94

Consider the variant "LTVHVGNVTYHFDNPEQAEEWAKRMAKKYHGQIHVKDGQFRIE" and give its recorded folding stability dG.
2.02
